test system: female C57BL/6 mice; assay: Protein expression efficiency of fLuc mRNA-LNPs after intramuscular injection (IVIS whole-body luminescence); format: in vivo; conditions: fLuc mRNA-LNP, intramuscular injection, luminescence at injection site, after administration, mice
Listing of entries alongside the reported Total flux.
measure.name: Total flux

molecule	obs.value
CCCCCCCCCCCOC(=O)CCCCCN(CCCCCCCC(=O)OC(CCCCCCCC)CCCCCCCC)CC(O)CCCCNC(=O)c1c[nH]c(O)n1 (stereo not shown)	6.12E+06
CCCCCCCCCCCOC(=O)CCCCCN(CCCCCCCC(=O)OC(CCCCCCCC)CCCCCCCC)CC(O)CCCCNC(=O)c1c[nH]cn1 (stereo not shown)	2.79E+06
CCCCC/C=C\C/C=C\CCCCCCCCC(CCCCCCCC/C=C\C/C=C\CCCCC)OC(=O)CCCN(C)C [MC3, DLin-MC3-DMA, reference compound]	1.03E+06
CCCCCCCCCCCOC(=O)CCCCCN(CCO)CCCCCCCC(=O)OC(CCCCCCCC)CCCCCCCC [SM-102, reference compound]	2.27E+07
